Target: human plasma protein factor Xa (Homo sapiens)
Construct: measure proteolytic activity of the enzyme (factor Xa)
Test: Factor Xa IC50 determination: cleavage of paranitroanilide substrate S-2765 in 96-well plates
Conditions: fXa 1 nM, S-2765 100 μM, Tris buffered saline pH 7.4, room temperature
pIC50: −log10 of the molar value.

| compound | measurement target | pIC50 |
| --- | --- | --- |
| N=C(c1ccc(C2=NOC(CNC(=O)c3ccc(Cl)s3)C2)cc1)N1CCCC1 (stereo not shown) [Example 10] | human plasma protein factor Xa (Homo sapiens) | ≥ 7.00 |
| N=C(c1ccc(-c2noc(CNC(=O)c3ccc(Cl)s3)n2)cc1)N1CCCCC1 [Example 337] | human plasma protein factor Xa (Homo sapiens) | ≥ 7.00 |
| CC(=N)N1CCC(C2=NOC(CNC(=O)c3ccc(Cl)s3)C2)CC1 (stereo not shown) [Example 173] | human plasma protein factor Xa (Homo sapiens) | ≤ 6.30 |
| COc1cc(C(=N)N2CCCCC2)ccc1C1=NOC(CNC(=O)c2ccc(Cl)s2)C1 (stereo not shown) [Example 105] | human plasma protein factor Xa (Homo sapiens) | ≥ 7.00 |

----------
Molecular target: human plasma protein factor Xa (Homo sapiens)
Construct: measure proteolytic activity of the enzyme (factor Xa)
Assay: Factor Xa IC50 determination: cleavage of paranitroanilide substrate S-2765 in 96-well plates
Details: fXa 1 nM, S-2765 100 μM, Tris buffered saline pH 7.4, room temperature
experimental readout: IC50

| compound | experimental readout | result |
| --- | --- | --- |
| O=C(NCC1CC(c2ccc(Nc3ccccn3)cc2)=NO1)c1ccc(Cl)s1 (centres unmarked) | IC50 | ≥ 500 nM |
| N=C(c1ccc(-c2cc(CNC(=O)c3ccc(Cl)s3)on2)c(F)c1)N1CCCCC1 | IC50 | ≤ 100 nM |
| N=C(c1ccc(-n2cc(CNC(=O)c3ccc(Cl)s3)nn2)cc1)N1CCCC1 | IC50 | ≤ 100 nM |
| O=C(NCC1CC(c2ccc(-c3ccccc3CN3CCCCCC3)cc2)=NO1)c1ccc(Cl)s1 (centres unmarked) | IC50 | ≥ 500 nM |
| CN(C)C(=N)c1ccc(-c2cc(CNC(=O)c3ccc(Cl)s3)no2)cc1 | IC50 | ≤ 100 nM |
| CN1CCN=C1c1ccc(C2=NOC(CNC(=O)c3ccc(Cl)s3)C2)c(OC2CCCC2)c1 (centres unmarked) | IC50 | ≤ 100 nM |
| O=C(NCC1CC(c2ccc(Nc3cccnc3)cc2)=NO1)c1ccc(Cl)s1 (centres unmarked) | IC50 | ≤ 100 nM |
| O=C(NCC1CC(c2cccc(-c3cccc(CN4CCCC4)c3)c2)=NO1)c1ccc(Cl)s1 (centres unmarked) | IC50 | ≥ 500 nM |

----------
Biological target: human plasma protein factor Xa (Homo sapiens, UniProt P00742)
Construct: measure proteolytic activity of the enzyme (factor Xa)
Sequence (P00742 235-488 limits assumed): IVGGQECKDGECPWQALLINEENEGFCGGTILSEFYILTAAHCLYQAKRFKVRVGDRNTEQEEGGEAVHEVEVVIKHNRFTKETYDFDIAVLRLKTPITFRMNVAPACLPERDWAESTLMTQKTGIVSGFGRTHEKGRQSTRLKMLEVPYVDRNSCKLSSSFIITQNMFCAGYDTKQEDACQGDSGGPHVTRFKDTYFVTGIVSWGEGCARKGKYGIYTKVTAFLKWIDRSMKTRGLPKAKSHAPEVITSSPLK
Sequence (P00742 41-179 partner limits assumed): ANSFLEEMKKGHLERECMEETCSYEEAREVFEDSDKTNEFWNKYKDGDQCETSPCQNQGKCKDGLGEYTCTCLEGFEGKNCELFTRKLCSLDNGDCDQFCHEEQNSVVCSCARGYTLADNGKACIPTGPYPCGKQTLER
Test: Factor Xa IC50 determination: cleavage of paranitroanilide substrate S-2765 in 96-well plates
Conditions: fXa 1 nM, S-2765 100 μM, Tris buffered saline pH 7.4, room temperature
# IC50 per entry

| compound | measurement target | IC50 |
| --- | --- | --- |
| COC(=O)c1ccc(C2=NOC(CNC(=O)c3ccc(Cl)s3)C2)cc1 (stereo not shown) | human plasma protein factor Xa (Homo sapiens, UniProt P00742) | ≥ 0.5 µM |
| COc1ccc(CN2CCCC2)c(-c2ccc(-c3cc(CNC(=O)c4ccc(Cl)s4)on3)cc2)c1 | human plasma protein factor Xa (Homo sapiens, UniProt P00742) | ≤ 0.1 µM |
| CN1CCN=C1c1ccc(-c2cc(CNC(=O)c3ccc(Cl)s3)on2)c(F)c1 | human plasma protein factor Xa (Homo sapiens, UniProt P00742) | ≤ 0.1 µM |
| O=C(NCC1CC(c2ccc(Nc3ccc(F)cc3)cc2)=NO1)c1ccc(Cl)s1 (stereo not shown) | human plasma protein factor Xa (Homo sapiens, UniProt P00742) | ≥ 0.5 µM |
| O=C(NCC1CC(c2ccc(-n3cc(F)ccc3=O)cc2)=NO1)c1ccc(Cl)s1 (stereo not shown) | human plasma protein factor Xa (Homo sapiens, UniProt P00742) | ≤ 0.1 µM |
| CN(C)C(=N)c1ccc(-c2cc(CNC(=O)c3ccc(Cl)s3)on2)c(Oc2ccccc2)c1 | human plasma protein factor Xa (Homo sapiens, UniProt P00742) | ≤ 0.1 µM |
| CN1CCN=C1c1ccc(-n2cc(CNC(=O)c3ccc(Cl)s3)nn2)cc1 | human plasma protein factor Xa (Homo sapiens, UniProt P00742) | ≤ 0.1 µM |
| CC1(CNC(=O)c2ccc(Cl)s2)CC(c2ccc(C(=N)N3CCCCC3)cc2)=NO1 (stereo not shown) | human plasma protein factor Xa (Homo sapiens, UniProt P00742) | ≤ 0.1 µM |
| N=C(c1ccc(-c2nc(CNC(=O)c3ccc(Cl)s3)cs2)cc1)N1CCCCC1 | human plasma protein factor Xa (Homo sapiens, UniProt P00742) | 0.1 to 0.5 µM |
| N=C(N)N1CCC(C2=NOC(CNC(=O)c3ccc(Cl)s3)C2)CC1 (stereo not shown) | human plasma protein factor Xa (Homo sapiens, UniProt P00742) | ≥ 0.5 µM |

----------
Molecular target: human plasma protein factor Xa (Homo sapiens, UniProt P00742)
Construct: measure proteolytic activity of the enzyme (factor Xa)
Assay: Factor Xa IC50 determination: cleavage of paranitroanilide substrate S-2765 in 96-well plates
Conditions: fXa 1 nM, S-2765 100 μM, Tris buffered saline pH 7.4, room temperature
Quick list: IC50 per entry.

| molecule | IC50 |
| --- | --- |
| O=C(NCc1cn(-c2ccc(N3CCOCC3)nc2)nn1)c1ccc(Cl)s1 | 100 to 500 nM |
| CN(C)CCN(C)C(=N)c1ccc(-c2cc(CNC(=O)c3ccc(Cl)s3)on2)cc1 | ≤ 100 nM |
| CN(C)C(=N)c1ccc(-c2cc(CN(C)C(=O)c3ccc(Cl)s3)on2)cc1 | ≥ 500 nM |
| O=C(NCc1cc(C2CCNCC2)no1)c1ccc(Cl)s1 | ≥ 500 nM |
| O=C(NCc1cn(-c2ccc(N3CCCCC3=O)nc2)nn1)c1ccc(Cl)s1 | ≤ 100 nM |
| CN1CCCN(c2ccc(C3=NOC(CNC(=O)c4ccc(Cl)s4)C3)c(F)c2)CC1 (stereo not shown) | ≤ 100 nM |
| CN(C)CCN(C)C(=N)c1ccc(-c2cc(CN(C)C(=O)c3ccc(Cl)s3)on2)cc1 | ≥ 500 nM |

----------
Biological target: human plasma protein factor Xa (Homo sapiens, UniProt P00742)
Construct: measure proteolytic activity of the enzyme (factor Xa)
Assay: Factor Xa IC50 determination: cleavage of paranitroanilide substrate S-2765 in 96-well plates
Conditions: fXa 1 nM, S-2765 100 μM, Tris buffered saline pH 7.4, room temperature
Text: This example illustrates methods for evaluating the compounds of the invention, along with results obtained for such assays. The in vitro and in vivo Factor Xa isoform activities of the inventive compounds can be determined by various procedures known in the art, such as a test for their ability to inhibit the activity of the Factor Xa isoform. […] The IC50 value is the concentration (in nM) of the compound required to provide 50% inhibition of Factor Xa isoform. […]

| compound | measurement target | IC50 |
| --- | --- | --- |
| COC(=O)c1ccccc1Nc1ccc(C2=NOC(CNC(=O)c3ccc(Cl)s3)C2)cc1 (stereo not shown) [Example 260] | human plasma protein factor Xa (Homo sapiens, UniProt P00742) | ≥ 500 nM |
| CN(C)Cc1ccc(-c2ccc(-c3cc(CNC(=O)c4ccc(Cl)s4)on3)cc2)cc1 [Example 213] | human plasma protein factor Xa (Homo sapiens, UniProt P00742) | ≥ 500 nM |
| CCOc1cc(C(=N)N2CCCC2)ccc1C1=NOC(CNC(=O)c2ccc(Cl)s2)C1 (stereo not shown) [Example 108] | human plasma protein factor Xa (Homo sapiens, UniProt P00742) | ≤ 100 nM |
| CN1CCN(c2ccc(C3=NOC(CNC(=O)c4ccc(Cl)s4)C3)cc2)C1=O (stereo not shown) [Example 245] | human plasma protein factor Xa (Homo sapiens, UniProt P00742) | ≤ 100 nM |

----------
The entries below are paired with their reported IC50.
Target: human plasma protein factor Xa (Homo sapiens)
Construct: measure proteolytic activity of the enzyme (factor Xa)
Experiment: Factor Xa IC50 determination: cleavage of paranitroanilide substrate S-2765 in 96-well plates
Settings: fXa 1 nM, S-2765 100 μM, Tris buffered saline pH 7.4, room temperature

| compound | IC50 |
| --- | --- |
| COc1ccc(Oc2cc(C(=N)N(C)C)ccc2-c2cc(CNC(=O)c3ccc(Cl)s3)on2)cc1 | ≤ 100 nM |
| COc1ccc(-c2ccc(-c3cc(CNC(=O)c4ccc(Cl)s4)on3)cc2)c(CN2CCCC2)c1 | ≤ 100 nM |
| CCOC(=O)C1CCN(C(=N)c2ccc(C3=NOC(C)(CNC(=O)c4ccc(Cl)s4)C3)cc2)CC1 (centres unmarked) | ≤ 100 nM |
| O=C(NCC1CC(c2ccc(-c3ccccc3Cl)cc2)=NO1)c1ccc(Cl)s1 (centres unmarked) | ≥ 500 nM |
| CN(C)C(=N)c1ccc(-n2cc(CNC(=O)c3ccc(Cl)s3)cn2)cc1 | ≤ 100 nM |

Reference source for all entries: patent US8377974B2
